Target: Monoglyceride lipase (Homo sapiens, UniProt Q99685)
Sequence (Q99685 whole entry): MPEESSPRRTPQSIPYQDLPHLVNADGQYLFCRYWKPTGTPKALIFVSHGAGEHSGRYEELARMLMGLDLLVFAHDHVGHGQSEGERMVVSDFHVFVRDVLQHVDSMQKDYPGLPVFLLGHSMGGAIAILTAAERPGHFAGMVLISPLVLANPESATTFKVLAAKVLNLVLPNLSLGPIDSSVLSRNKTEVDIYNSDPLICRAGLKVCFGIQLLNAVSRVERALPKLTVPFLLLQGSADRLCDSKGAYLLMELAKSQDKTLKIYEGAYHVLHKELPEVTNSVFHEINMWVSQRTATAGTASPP
Assay: Inhibition of human recombinant MAGL using 4-nitrophenylacetate as substrate incubated for 30 mins by microplate reader analysis
quantity.name: IC50 (nM)
Give just the number in nM; leave the unit off.

Exercise: Complete the entry with IC50 for `O=C(c1cccc(O)c1)N1CCC(Cc2ccc(F)c(Sc3cc(C(F)(F)F)ccn3)c2)CC1`
Solution: 2.7

Exercise: Complete the entry with IC50 for `O=C(Nc1cc(O)cc(C(=O)N2CCC(Cc3cccc(Sc4cc(C(F)(F)F)ccn4)c3)CC2)c1)c1ccccc1`
Solution: 149

Exercise: Complete the entry with IC50 for `O=C(c1ccc(Sc2ccccc2)c(O)c1)N1CCC(Cc2cccc(Sc3cc(C(F)(F)F)ccn3)c2)CC1`
Solution: 242

Exercise: Complete the entry with IC50 for `O=C(c1cccc(O)c1)N1CCC(Cc2cc(Sc3cc(C(F)(F)F)ccn3)ccc2O)CC1`
Solution: 20.8
